Catalogue of molecules with associated TGI
Tested on: NCI-H522 lung
Experiment notes: NCI tumour cell line growth inhibition, 48 h
Readout name: TGI

1) Cn1nc(-c2ccccc2)c(C(=O)/C=C/c2ccccc2)c(N2CCCCC2)c1=O :: > 100 µM
2) O=C(Nc1cccnc1)c1cccs1 :: > 100 µM
3) Cc1nc2ccc(N=Nc3c(O)ccc4ccccc34)cc2[nH]1 :: 54.3 µM
4) CC(C)(C)OC(=O)N1C[C@H](CC(=O)OCc2ccccc2)C[C@H]1C(=O)OCC(Cl)(Cl)Cl :: 13.6 µM
5) COC(=O)C1C2CC3C(OC(=O)C31)C2I (stereo not drawn) :: > 100 µM
6) O=c1oc2ccccc2c(-c2ccc(O)cc2)c1Oc1ccc(Cl)cc1 :: 43.7 µM
7) CCOc1ccc(/C=N/Nc2cc(C)nc3ccc(Cl)cc23)cc1 :: 3.29 µM
8) CCN(CC)CC(O)CNc1ccc(NCC(O)CCl)c2c1C(=O)c1ccccc1C2=O (stereo not drawn) :: 13.5 µM
9) C[C@H]1O[C@@H](O[C@H]2[C@@H](O)C[C@H](O[C@H]3[C@@H](O)C[C@H](O[C@H]4CC[C@]5(C)C6C[C@@H](O)[C@]7(C)[C@@H](C8=CC(=O)OC8)CC[C@]7(O)C6CC[C@@H]5C4)O[C@@H]3C)O[C@@H]2C)C[C@H](O)[C@@H]1O (stereo partly drawn) :: 0.0695 µM
10) C/C(=N\N=C(\N)OB(F)F)c1ccccn1 :: > 100 µM
11) Cc1cc(NC(=O)NC(=O)c2ccccc2[N+](=O)[O-])ccc1Oc1ncc(Cl)cn1 :: 0.201 µM
12) Nn1c(-c2ccccc2Nc2ccccc2-c2n[nH]c(=S)n2N)n[nH]c1=S :: > 50 µM
13) NC(N)=NS(=O)(=O)c1ccc(Nc2c3ccccc3nc3ccc(C(=O)Nc4ccc(S(N)(=O)=O)cc4)cc23)cc1 :: > 100 µM
14) O=C(Nc1cccc(-n2cc(-c3ccncc3)c(-c3cc(O)cc(Cl)c3)n2)c1)Nc1ccc(Cl)c(Cl)c1 :: 3.14 µM
15) Cc1cc(=O)cc2sc3cc(Cl)ccc3nc1-2 :: 7.65 µM
16) COc1ccc(NC(=O)CSc2nnc(Cc3ccccc3)o2)cc1 :: > 100 µM
17) C/C(Sc1ccccc1)=C1/CCCN(Cc2ccccc2)C1 :: 38.8 µM
18) CC(C)Cc1ccc(C(C)/C=C2\CCC(CN3CCOCC3)C2=O)cc1 (stereo not drawn) :: 15.4 µM
19) O=S1Cc2ccccc2CS1 (stereo not drawn) :: 19.7 µM
20) CCC1(O)C(=O)OCc2c1cc1n(c2=O)Cc2c-1nc1ccccc1c2OC (stereo not drawn) :: 0.984 µM
21) CCOC(=O)C(Cc1ccc(OC(=O)c2ccc(OC)cc2OC)cc1)NC(=O)C(F)(F)F (stereo not drawn) :: 40.9 µM
22) NCC(=O)Nc1ccc(-n2nc(C(F)(F)F)cc2-c2ccc3c(ccc4ccccc43)c2)cc1 :: 2.71 µM
23) O=C(O)c1cnccc1-c1cc(=O)[nH]n1-c1ccccc1 :: > 100 µM
24) NCCCCN :: > 100 µM
25) CCN(CC)/[N+]([O-])=N/OC :: > 100 µM
26) COC(=O)C(=C\Sc1ccccc1)/C=C/C(=O)OC(C)(C)C :: 9.9 µM
27) O=C(CC(=O)C(=O)CC(=O)OCc1ccccc1)OCc1ccccc1 :: > 100 µM
28) Oc1ccc(Cl)cc1Cc1cc(Cl)cc(Cc2cc(Cl)ccc2O)c1O :: 3.32 µM
29) COc1ccc(S(=O)(=O)Nc2cc(/C=C\c3cc(OC)c(OC)c(OC)c3)cc(OC)c2OC)cc1OC :: > 100 µM
30) CSc1nc2nc(C)c(C)nc2c(=O)[nH]1 :: > 100 µM
31) NNC(=O)CC(=O)Nc1ccc(C(=O)O)cc1 :: > 100 µM
32) O=S1(=O)COc2ccccc2-c2ncncc21 :: > 100 µM
33) Nc1ccc(S(=O)(=O)Nc2nc3ccccc3nc2Nc2ccc(S(N)(=O)=O)cc2)cc1 :: 96.6 µM
34) OCC1C(O)C(O)[C@@H]2SCCN12 (stereo partly drawn) :: > 100 µM
35) Cn1c(O)c(C=N)c(=O)n(C)c1=O :: > 100 µM
36) COc1cc(C2=Nc3c/c(=C\c4c(O)[nH]c5ccc(Cl)cc45)ccc3=N2)cc(OC)c1OC :: 10.7 µM
37) Cc1nc(NC(=O)COc2cccc(/C=C3\COc4ccccc4C3=O)c2)sc1C :: 4.41 µM
38) CCCCCCCCCCCCCCCCc1c(C(=O)OC)[nH]c(=S)[nH]c1=O :: > 50 µM
39) COC1OC(COCc2ccc(Cl)cc2)C(OCc2ccc(Cl)cc2)C1O (stereo not drawn) :: 27.5 µM
40) Nc1ccccc1C#Cc1ccccc1C#Cc1ccccc1N :: 11.5 µM
41) COC(=O)C(C(=O)C(=O)Nc1c(Cl)cc([N+](=O)[O-])cc1Cl)c1nc2cc(C)c(C)cc2[nH]c1=O (stereo not drawn) :: > 100 µM
42) COC(OC)C1(c2ccccc2)Oc2ccccc2C1=O (stereo not drawn) :: > 100 µM
43) O=C(COC(c1ccc(F)cc1)c1ccc(F)cc1)N1CCN(CCCc2ccccc2)CC1 :: 18.6 µM
